- tgt: CDK4/cyclin D3 (Homo sapiens, UniProt P11802)
- Construct: purchased Carna Biosciences, Inc. QS S Assist CDK4/Cyclin D3_FP Kit
- Sequence (P11802 whole entry): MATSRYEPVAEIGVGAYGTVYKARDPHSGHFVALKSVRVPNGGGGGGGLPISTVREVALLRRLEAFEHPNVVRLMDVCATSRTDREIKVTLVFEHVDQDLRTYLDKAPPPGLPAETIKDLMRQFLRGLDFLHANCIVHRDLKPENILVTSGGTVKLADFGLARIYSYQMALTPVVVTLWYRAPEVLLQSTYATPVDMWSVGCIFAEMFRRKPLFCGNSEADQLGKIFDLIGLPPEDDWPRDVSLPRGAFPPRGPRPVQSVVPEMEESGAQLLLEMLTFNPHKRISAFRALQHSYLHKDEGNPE
- Sequence (P30281 whole entry partner): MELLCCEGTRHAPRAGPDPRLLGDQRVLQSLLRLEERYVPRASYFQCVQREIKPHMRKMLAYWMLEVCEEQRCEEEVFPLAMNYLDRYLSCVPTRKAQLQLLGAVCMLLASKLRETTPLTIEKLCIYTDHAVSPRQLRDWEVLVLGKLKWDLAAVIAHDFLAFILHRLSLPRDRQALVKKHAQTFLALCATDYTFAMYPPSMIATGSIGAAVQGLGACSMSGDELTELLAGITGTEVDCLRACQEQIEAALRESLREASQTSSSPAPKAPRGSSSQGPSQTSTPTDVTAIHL
- experiment_notes: Human CDK4/cyclin D3 inhibitory activity (QS S Assist CDK4/Cyclin D3_FP Kit, IMAP fluorescence polarization)
- Format: biochemical
- experimental_conditions: Human CDK4/cyclin D3 inhibitory activity; read-out: CDK4 Activity symbol
Would you mind telling me the reported IC50 of each entry?

>>> result("CC(C)N(C)c1nc(C(F)F)cc2cnc(Nc3ccc(N4CCNCC4)cn3)nc12 [Compound 14]")
"< 10 nM"

For each of the molecules below, state IC50.
1. Cc1c([C@@H](C)O)nc(NC(C)C)c2nc(Nc3ccc(N4CCNCC4)cn3)ncc12 [Compound 66]
2. COCC(C)(C)Nc1nc(C(C)O)cc2cnc(Nc3ccc(N4CCNCC4)cn3)nc12 (centres unmarked) [Compound 29]
3. COCC(C)(C)Nc1nc([C@@H](C)O)cc2cnc(Nc3ncc(N4CCNCC4)cn3)nc12 [Compound 375]
4. CC(C)Nc1nc([C@@H](C)O)cc2cnc(Nc3ccc(CN4CCN(C)CC4)cn3)nc12 [Compound 548]

1. < 10 nM
2. < 10 nM
3. ≥ 100 nM
4. < 10 nM

For each of the molecules below, state IC50.
1. CO[C@H](C)c1cc2cnc(Nc3ccc(OC4CCNCC4(F)F)cn3)nc2c(NC(C)C)n1 (some centres unmarked) [Compound 473]
2. CC(=O)c1cc2cnc(Nc3ccc(N4CCNCC4)cn3)nc2c(NC2CCCC2)n1 [Compound 57]
3. CC(C)Nc1nc(C(F)F)cc2cnc(Nc3ccc(CCC(=O)O)cn3)nc12 [Compound 111]
4. CC(C)Nc1nc([C@@H](C)O)cc2cnc(Nc3ccc(OC4CNC4)nn3)nc12 [Compound 546]
5. CO[C@H](C)c1cc2cnc(Nc3ccc(OCCN4CCOCC4)cn3)nc2c(NC(C)C)n1 [Compound 282]
6. CC(C)Nc1nc(C(F)F)cc2cnc(Nc3ccc(CCCC(N)=O)cn3)nc12 [Compound 135]

1. 10 to 100 nM
2. < 10 nM
3. 10 to 100 nM
4. < 10 nM
5. < 10 nM
6. < 10 nM
